# Test system: RAW-Dual (murine macrophage reporter line)
# assay.info: IRF reporter (Lucia luciferase) activity fold change vs agonist alone; higher = enhanced IRF activity
# run.conditions: modulator concentration 10 µM; agonist: 3'3'-cGAMP 10 ug/mL
Given measured IRF reporter, output YES if it is greater than or equal to 0.9 and NO if not.

| molecule | group.label |
| --- | --- |
| CC1=CCC(C2Nc3ccccc3-c3nnc(SCc4ccc(C)cc4)nc3O2)CC1 (stereo not drawn) | YES |
| Cc1ccc(C(=O)c2ccc(CC(=O)O)n2C)cc1 | YES |
| COC(=O)C1C(=O)CC(C)(O)C(C(=O)OC)C1c1ccc2c(c1)OCO2 (stereo not drawn) | YES |
| CCc1c(C)[nH]c2c1C(=O)C(CN1CCOCC1)CC2 (stereo not drawn) [Prestw-1035] | YES |
| CCOc1ccc(S(=O)(=O)NCCn2nc(C3CC3)ccc2=O)cc1C | YES |
| Cc1cc(C)n(C2CC(=O)N(c3ccccc3)C2=O)n1 (stereo not drawn) | YES |
| Cc1cc(C)nc(NC#N)n1 | NO |
| CC(C)c1ccc(NC(=O)C2CCCCC2C(=O)O)cc1 (stereo not drawn) | YES |
| CC(=O)N1CCN=C1SCc1cccc(C(F)(F)F)c1 | NO |
| Brc1ccc2[nH]cc(-c3nnc4ccc5ccccc5n34)c2c1 | YES |
| CC=CCn1c(=O)c2c(nc3n2CC(C(C)(C)C)=NN3)n(C)c1=O | YES |
| C=CCNC(=O)c1cccc(Br)c1 | YES |
| O=C(Cc1ccc(Cl)cc1)Nc1ccc2oc(-c3c(F)c(F)c(F)c(F)c3F)nc2c1 | NO |
| CCN1C(=O)C(=Cc2c[nH]c3ccccc23)SC1=S | NO |
| CC(=O)CCc1oc2ccc([N+](=O)[O-])cc2c1-c1ccc(C)o1 | NO |
| O=[N+]([O-])c1ccc(-n2cccc2C=NNc2nc(N3CCOCC3)nc(N3CCOCC3)n2)cc1 | NO |
| Cc1ccc(OCCCOc2cccc3cccnc23)c(Br)c1 | NO |
| CCOc1ccc(-c2nc3c(c(C)nn3-c3ccccc3)c3cc(OC)c(OC)cc23)cc1 | YES |
| O=C(CSc1ccc2nc(-c3ccccc3)cn2n1)Nc1ccc(Br)cc1 | NO |
| CC(=O)c1cc(Cl)ccc1OC(=O)c1ccccc1Cl | NO |

###

# Test system: RAW-Dual (murine macrophage reporter line)
# assay.info: viability score (confluency relative to resting cells, overnight) (fraction); higher = more viable, active = viable (0.7 or more)
# run.conditions: modulator concentration 10 µM
Possible outcomes: active, inactive

| molecule | group.label |
| --- | --- |
| Oc1ccc(N=Cc2ccccc2O)cc1 | inactive |
| CN(C)CC/C=C1/c2ccccc2COc2ccc(CC(=O)O)cc21.Cl | active |
| Cc1c(Cl)cccc1NC(=O)C(Cl)=Cc1ccccc1 | active |
| Cc1ccc(OCCCOc2cccc3cccnc23)c(Cl)c1 | active |
| COc1nn(C)cc1C(=O)Nc1ccc(C(=O)NCCN2CCOCC2)cc1 | active |
| CC1=C(C(=O)OCC(F)(F)C(F)(F)F)C(c2ccccc2)NC(=O)N1 (stereo not given) | active |
| CC(=O)Oc1cc2c(s1)CCN(C(C(=O)C1CC1)c1ccccc1F)C2.Cl (stereo not given) | active |
| CC1COc2c(N3CCN(C)CC3)c(F)cc3c(=O)c(C(=O)O)cn1c23 (stereo not given) | active |
| O=C(Oc1ccc(C=Nc2ccc([N+](=O)[O-])cc2)cc1)c1ccccc1 | active |
| CCOC(=O)[C@H](CCc1ccccc1)N[C@H]1CCc2ccccc2N(CC(=O)O)C1=O | active |

###

# Test system: RAW-Dual (murine macrophage reporter line)
# assay.info: viability score (confluency relative to resting cells, overnight) (fraction); higher = more viable, active = viable (0.7 or more)
# run.conditions: modulator concentration 10 µM

| compound | viability score |
| --- | --- |
| Cc1ccc(-n2ncc3c(Nc4cccc(C)c4)ncnc32)cc1 | 0.995 |
| Nc1ncnc2c1ncn2[C@@H]1O[C@H](COP(=O)(O)O)[C@@H](O)[C@H]1O | 1.03 |
| O=C(Nc1ccc([N+](=O)[O-])cc1Cl)c1cc(Cl)ccc1O | 1.01 |
| OCC1OC(Oc2ccc(O)cc2)C(O)C(O)C1O (stereo not given) | 1 |
| COC(=O)c1ccc2c(c1)NC(=O)/C2=C(\Nc1ccc(N(C)C(=O)CN2CCN(C)CC2)cc1)c1ccccc1 | 0.998 |
| CC(C)(C)NCC(O)COc1cccc2c1C[C@H](O)[C@H](O)C2 (stereo not given in full) | 0.981 |
| Cc1cc(OCC(=O)Nc2ccccc2-c2ccccc2)ccc1Br | 0.997 |
| O=C(O)CSc1nnc(Br)n1-c1ccc(C2CC2)c2ccccc12 | 1 |
| COc1ccc(N(CC(=O)NCCc2ccc(OC)c(OC)c2)S(=O)(=O)c2ccc(OC)c(OC)c2)cc1 | 1.01 |
| Cc1ccc(NC(=O)CN2C(=O)c3ccccc3C2=O)c(C(=O)O)c1 | 1.02 |

###

# Tested on: RAW-Dual (murine macrophage reporter line)
# assay.info: NF-kB reporter (SEAP) activity fold change vs agonist alone; higher = enhanced NF-kB activity
# run.conditions: modulator concentration 10 µM; agonist: LPS 0.1 ug/mL
property.label: NF-kB reporter

| compound | quantitative.result |
| --- | --- |
| COc1ccc(CC(N)C(=O)NC2C(CO)OC(n3cnc4c(N(C)C)ncnc43)C2O)cc1.Cl.Cl (centres undefined) | 0.514 |
| COc1cccc2c1C(=O)c1c(O)c3c(c(O)c1C2=O)C[C@@](O)(C(C)=O)C[C@@H]3O[C@H]1C[C@H](N)[C@H](O)[C@H](C)O1.Cl | 0.0574 |
| O=C(O)CCn1c2c(c3ccccc31)C[C@H](NS(=O)(=O)c1ccc(F)cc1)CC2 | 0.94 |
| CCOC(=O)c1c(N2C(=O)C3C4C=CC(O4)C3C2=O)sc2c1CCCC2 (centres undefined) | 0.792 |
| Cc1ccc(S(=O)(=O)n2nnc3ccccc32)cc1C | 1.04 |
| CC(=O)SCC(Cc1ccccc1)C(=O)NCC(=O)OCc1ccccc1 (centres undefined) | 0.997 |
| COc1ccc(C2N3CC4(C)CN2CC(C)(C3)C4O)cc1 (centres undefined) | 0.949 |
| CCCC1=NN2C(=N)C(=Cc3ccc(OCc4ccc(F)cc4)c(OCC)c3)C(=O)N=C2S1 | 1.03 |
| CCc1ccc(NC(=O)CSc2nc3c([nH]c4ccccc43)c(=O)n2C)cc1 | 0.745 |

###

# key: entry, value: IRF reporter
# Test system: RAW-Dual (murine macrophage reporter line)
# assay.info: IRF reporter (Lucia luciferase) activity fold change vs agonist alone; higher = enhanced IRF activity
# run.conditions: modulator concentration 10 µM; agonist: 3'3'-cGAMP 10 ug/mL
property.label: IRF reporter

| compound | property.label | quantitative.result |
| --- | --- | --- |
| O=C(O)c1cc2ccccc2[nH]1 | IRF reporter | 1.02 |
| CCN1CCN(CC(O)COc2ccc(C(C)(C)C)cc2C(C)(C)C)CC1.Cl.Cl (stereo unspecified) | IRF reporter | 0.96 |
| CCCCCCCCCCCC1=C(O)C(=O)C=C(O)C1=O | IRF reporter | 0.566 |
| COc1ccc(N(CC(=O)NCCSCc2ccccc2)S(C)(=O)=O)cc1Cl | IRF reporter | 0.864 |
| CCS(=O)(=O)N1CC(CC#N)(n2cc(-c3ncnc4[nH]ccc34)cn2)C1 | IRF reporter | 0.189 |
| Cc1ccccc1-c1noc(-c2cc3ccccc3oc2=O)n1 | IRF reporter | 1 |
| CCN(CCO)CCCC(C)Nc1ccnc2cc(Cl)ccc12.O=S(=O)(O)O (stereo unspecified) | IRF reporter | 0.984 |
| CC(C)Sc1ccc(CC(=O)N2C3C=CCC2CC3)cc1 (stereo unspecified) | IRF reporter | 1 |
| COc1cc(C=C2SC(=S)NC2=O)ccc1OCCC(C)C | IRF reporter | 1.03 |
| Cc1ccc(NC(=O)C(C#N)=Cc2ccc(-c3cccc([N+](=O)[O-])c3)o2)cc1 | IRF reporter | 1 |
| O=S1(=O)Nc2c(ccc3cccnc23)-c2ccccc21 | IRF reporter | 15 |

###

IRF reporter listing for selected molecules.
# Tested on: RAW-Dual (murine macrophage reporter line)
# assay.info: IRF reporter (Lucia luciferase) activity fold change vs agonist alone; higher = enhanced IRF activity
# run.conditions: modulator concentration 10 µM; agonist: MPLA […]

| molecule | IRF reporter |
| --- | --- |
| CN1C(=O)C(=C2SC(=S)N(C(CCC(=O)O)C(=O)O)C2=O)c2ccccc21 (stereo not given) | 1.03 |
| Cl.NCc1ccc(S(N)(=O)=O)cc1 | 0.928 |
| O=C(Nc1ccc(-c2cn3ccsc3n2)cc1)NC1CCCCC1 | 1.22 |
| COC1CCN(c2ccc(C(=O)N3CC(n4cc(COc5ccccc5)nn4)C3)cc2)C1 (stereo not given) | 1.08 |
| Cc1cc(C)nc(NC#N)n1 | 1.18 |
| CCC(C(=O)N1CCN(CCn2ccnc2-c2ccccc2)CC1)c1ccccc1 (stereo not given) | 0.956 |
| O=c1cc(O)nc(SCc2c(F)c(F)c(F)c(F)c2F)[nH]1 | 1.03 |
| COC1(c2ccc(Cl)cc2)OC(=O)c2ccccc21 (stereo not given) | 1.13 |
| O=C(CSc1nc(-c2ccccc2)c(-c2ccccc2)o1)N1CCOCC1 | 1.2 |
| COC(=O)N[C@H](C(=O)N1CCC[C@H]1c1ncc(-c2ccc(-c3ccc(-c4cnc([C@@H]5CCCN5C(=O)[C@@H](NC(=O)OC)C(C)C)[nH]4)cc3)cc2)[nH]1)C(C)C.Cl.Cl | 1.99 |
| O=c1[nH]c(NN=Cc2c3ccccc3cc3ccccc23)nc2ccccc12 | 1.23 |
| CC(Oc1ccccc1)C(=O)NCc1cc(-c2ccncc2)n(C2CCCC2)n1 (stereo not given) | 1.12 |
| CC12CC3CC(C)(C1)CC(N)(C3)C2.Cl | 1.14 |
| c1ccc(OCCOc2ccc(Nc3ccnc4cc5ccccc5cc34)cc2)cc1 | 1.78 |
| COc1cc(OC)c(C(=O)CCCN2CCCC2)c(OC)c1.Cl | 0.899 |
| COCC(=O)N1CCC2(CC1)NC(=O)N(Cc1ccc(Cl)cc1)C2=O | 1.15 |
| Cl.Cl.NC1=NN(c2ccc(N)cc2)CC1 | 1.22 |
| O=C(O)CCC(=O)Nc1ccc(Br)cn1 | 0.938 |
| CCOC(=O)C1=C(C)NC(C)=C(C(=O)OCC)C1c1ccc(Cl)c(Cl)c1 | 1.37 |
| CC(=O)N1CCC(C(=O)N2CCOCC2CN(C)C)CC1.O=CO (stereo not given) | 1.06 |
| CCc1ccccc1Nc1nc(-c2sc(NC(C)=O)nc2C)cs1 | 1.42 |
| Oc1ccc2ccccc2c1SSc1c(O)ccc2ccccc12 | 0.908 |
| CNC(CC(=O)O)C(=O)O (stereo not given) | 0.948 |
| CCS(=O)(=O)c1ccc(-c2cccc(NC(=O)CC3CCCC3)c2)nn1 | 0.926 |
| CCOC(=O)C1=C(C)N(CC(C)C)C(=O)C1=Cc1cccc(Br)c1 | 1.19 |
| COc1ccc(C=NNc2nc(-c3ccccc3)cc(-c3ccc(Br)cc3)n2)c(OC)c1 | 1.08 |
| CCC(C)C(=O)OC1CCC=C2C=CC(C)C(CCC3CC(O)CC(=O)O3)C21 (stereo not given) | 1.33 |
| O=C(O)CCCNCP(=O)(O)CCc1ccccc1 | 0.963 |
| CNCC[C@@H](Oc1ccccc1C)c1ccccc1.Cl | 0.792 |
| C#CCN[C@@H]1CCc2ccccc21.CS(=O)(=O)O | 0.849 |
| OC(Cn1cncn1)(Cn1cncn1)c1ccc(F)cc1F | 1.62 |
| O=C1CCC(N2C(=O)c3ccccc3C2=O)C(=O)N1 (stereo not given) | 0.863 |
| CCc1ccc2oc(-c3ccc(NC(=O)c4ccc(C)c([N+](=O)[O-])c4)cc3)nc2c1 | 1.33 |
| COC(=O)C1=C(C)NC2=C(C(=O)CC(C)(C)C2)C1c1ccc(OC)c(O)c1 (stereo not given) | 1.05 |
| O=C1NC(=O)c2c1cc1ccccc1c2-c1ccccc1 | 1.35 |
| CCOc1cccc2sc(N(CCCN(C)C)C(=O)c3ccc(Cl)s3)nc12.Cl | 0.954 |
| O=C1c2cccc3c2[C@H](CCC3)CN1[C@@H]1CN2CCC1CC2 | 0.752 |
| COC(=O)c1cccc(Nc2nc(C=Cc3ccccc3)nc3ccccc23)c1 | 5.98 |
| CCOC(=O)C1=C(C)NC(C)=C(C(=O)OC)C1c1cccc([N+](=O)[O-])c1 (stereo not given) | 1.37 |
| O=[N+]([O-])c1ccc(Cl)c(C=Nc2cccc3c(N=Cc4cc([N+](=O)[O-])ccc4Cl)cccc23)c1 | 1.26 |
| COc1ccccc1OCC(O)CN1CCN(CC(=O)Nc2c(C)cccc2C)CC1 (stereo not given) | 0.936 |
| O=C(NCCN1CCOCC1)c1ccc(Cl)cc1 | 1.01 |
| O=C(NCCN1CCN(c2ccc(Cl)cc2)CC1)c1ccno1 | 1.36 |
| c1cc2c3c(cccc3c1)-c1nc3ccccc3nc1-2 | 1.59 |
| COc1ccc(S(=O)(=O)Nc2ccc(Oc3ccccc3)cc2)cc1 | 1.21 |
